- Test system: OVCAR-4 ovarian
- PROTOCOL_SUMMARY: NCI tumour cell line growth inhibition, 48 h
TEST_READOUT: TGI

                                   compound  assay_result
0     Cc1ccnc2[nH]c(-c3cccc(Cl)c3)cc(=O)c12      > 100 µM
1  CC1=C[C@H]2c3c(c(O)c(O)c4oc5ccccc5c(=O)c34)[C@H](c3cc(O)c(O)c4oc5ccccc5c(=O)c34)[C@H]2C(C)(C)C1       20.2 µM
2  CCOC(=O)/C(=C\c1ccc(N(C)C)cc1)S(=O)(=O)C(F)(F)C(F)(F)C(F)(F)C(F)(F)F      > 100 µM
3  O=C(NCCCCCCNC(=O)n1cc(F)c(=O)[nH]c1=O)NCCCOCCOCCCNC(=O)C(O)C(O)C(O)C(O)CO (centres undefined)      > 2.5 µM
4                  NC(=O)c1nnc2cc(F)ccc2c1N      > 100 µM

Input: Dear colleague, I am looking for the recorded TGI of the following compound: `NC(=O)N/N=C/C(/C=N/NC(N)=O)[N+](=O)[O-]`
Output: > 100 µM

Input: Please look up its TGI: `CCOC(=O)C(=Cc1ccccc1[N+](=O)[O-])C(=O)OCC`
Output: 18.1 µM

Input: Requested field: TGI. Item: `CCCCCCCCCCN(CCCCCCCCCC)CC(=O)c1ccc2cc(Br)c3ccccc3c2c1`
Output: 5.16 µM

Input: Entry O=c1/c(=C\c2ccccc2)sc2n1C(c1ccccc1)C1(O)CCCCC1N=2 (centres undefined) has what TGI?
Output: > 100 µM

* * *

- Test system: MCF7 breast
- PROTOCOL_SUMMARY: NCI tumour cell line growth inhibition, 48 h
TEST_READOUT: TGI

# example entries with known answers
>>> df
                                   compound  assay_result
0  CC(=O)N1CCc2c([nH]c3ccc(Br)cc23)C1c1ccccc1 (centres undefined)       > 10 µM
1         Cc1sc(C)c(Cc2c(C)sc(C)c2CCl)c1CCl      > 100 µM
2  Nc1ccc(S(=O)(=O)C23CC4CC(CC(C4)C2)C3)cc1      > 100 µM
3             O=C(/C=C/c1cccc(Br)c1)c1cccs1         33 µM
4  Cn1c(=O)c2c(nc3n(Cc4ccccc4)c(=O)c(NCCBr)cn23)n(C)c1=O      > 100 µM
5  CCOc1cc2c(NCCCN(CCO)CCO)ncnc2c(OCC)c1OCC      > 100 µM
6  O=C1/C(=C\c2cccc(Oc3ccccc3)c2)S(=O)(=O)C(c2ccccc2)N1c1ccccc1Cl (centres undefined)      > 100 µM
7    O=[N+]([O-])/C(C(Cl)=C(Cl)Cl)=C1\NCCO1      > 100 µM

Consider the additional compound presented here.
Input: Given the compound CCCCCCCCCCCCCCCCSCC(COC)COP(=O)([O-])OCC[N+](C)(C)C (centres undefined) , what is its reported TGI?
Output: 26.7 µM

* * *

- System: K-562 leukemia
- PROTOCOL_SUMMARY: NCI tumour cell line growth inhibition, 48 h
TEST_READOUT: TGI

Examples from the recorded data:
In [3]: df
Out[3]:
                                smiles_text  target_or_system  assay_result
0               C1CCN(c2nsc(N3CCCCC3)n2)CC1    K-562 leukemia      > 100 µM
1                         C1CSCCCSCCSCCCSC1    K-562 leukemia      > 100 µM
2  Cc1nc2ccc(Nc3nc(NCCN4CCOCC4)nc(Nc4ccc(F)cc4)n3)cc2n1Cc1ccccc1    K-562 leukemia       7.42 µM
3                      COCC(=O)CP(=O)(OC)OC    K-562 leukemia      > 100 µM

// switching to the query compound
Input: Which measured TGI value corresponds to `CNc1ccc(-c2nc3cc(C)ccc3o2)cc1` ?
Output: > 100 µM

* * *

- Test system: HS 578T breast
- PROTOCOL_SUMMARY: NCI tumour cell line growth inhibition, 48 h
TEST_READOUT: GI50

Consider the reported GI50 for these compounds:
SMILES_TEXT	GI50
COc1ccc(-c2cc(/C=C3\C(=O)Nc4ccc(Cl)cc43)[nH]n2)cc1	3.52 µM
Cc1nc2ccc(Nc3nc(NCCN4CCOCC4)nc(Nc4ccc(F)cc4)n3)cc2n1Cc1ccccc1	1.87 µM
COc1cc(/C=C\[N+](=O)[O-])ccc1OCc1ccccc1	3.81 µM
CN(C)CCCN1c2nc3ccccc3cc2Sc2cc3ccccc3nc21	1.37 µM

Continue with the next compound.
Input: Recorded GI50 for `CC(C)=CC(=O)O[C@H]1C(=O)O[C@@H]2C[C@H]3[C@H](C)C(=O)C(O[C@@H]4O[C@H](CO)[C@@H](O)[C@H](O)[C@H]4O)=C[C@]3(C)[C@H]3[C@@H](O)[C@H](O)[C@]4(C(=O)O)OC[C@]32[C@@H]14` , please?
Output: > 100 µM

* * *

Listed next: entries and their corresponding TGI.
- System: SK-OV-3 ovarian
- PROTOCOL_SUMMARY: NCI tumour cell line growth inhibition, 48 h

Here's what some known entries look like.
MOLECULE	ASSAY_RESULT
CN1CCCN(C)C1c1cc([N+](=O)[O-])ccc1O	> 100 µM
COC(=O)C1=C(C)NC2(O)C=CC(=O)C3C(=O)N(c4ccccc4)C(=O)C132 (centres undefined)	> 100 µM
CCN(CC)CCCOC(=O)/C=C/c1c(C)[nH]c(=O)[nH]c1=O	> 625 µM

Input: Give the measured TGI of `CC1(C)OC(=O)C=C([O-])O1.CC1(C)OC(=O)C=C([O-])O1.O=S(=O)([O-])c1ccc([O-])c2ncccc12.O=S(=O)([O-])c1ccc([O-])c2ncccc12.[Ti+4]` .
Output: > 100 µM

* * *

We begin with a simple list: items and their reported TGI.
- Tested on: A549 NSCLC
- PROTOCOL_SUMMARY: NCI tumour cell line growth inhibition, 48 h

// solved cases for TGI follow
COMPOUND	ASSAY_RESULT
O=C1C(NCCc2ccc(O)c(O)c2)=CC(=O)c2ncccc21	35.7 µM
O=C(Nc1nc2c(=O)[nH]cnc2s1)c1ccccc1	> 100 µM
CCCCCCCCCCCCCCCCSCC(COC)COP(=O)([O-])OCC[N+](C)(C)C (stereo not given)	20.5 µM

Input: Recall the recorded TGI for `Cc1c(C(=O)N2CCN(c3ccc([N+](=O)[O-])cc3)CC2)[n+](=O)c2cc(Cl)c(Cl)cc2n1[O-]` with A549 NSCLC and state it.
Output: 48.5 µM

Input: Notebook entry, A549 NSCLC assay: TGI of CCCCCC(=O)N[C@@H](c1ccccc1)C(O)C(=O)OC1C[C@@]2(O)C(OC(=O)c3ccccc3)C3[C@](C)(C(=O)[C@H](O)C(=C1C)C2(C)C)C(OC1OCC(O)C(O)C1O)C[C@H]1OC[C@@]31OC(C)=O (stereo not given in full) = ?
Output: > 100 µM

Input: Provide the documented TGI with A549 NSCLC as the system for `Clc1ccc(Cc2nc3ccc(CCN4CCN(c5ccccc5)CC4)cc3[nH]2)cc1`
Output: 33 µM

Input: Provide value of TGI for this record tested with A549 NSCLC: Cc1ccc(OCC2OC(n3cnc4c(N(C)C)nc(Br)nc43)CC2Oc2ccc(C)cc2)cc1 (stereo not given)
Output: > 100 µM

Input: Param readout = TGI; param system = A549 NSCLC; param query = CC12CCC(C(=O)O1)C(C)(C)O2 (stereo not given) ; response: value
Output: > 100 µM

* * *

# TGI annotations
- Tested on: HCC-2998 colon
- PROTOCOL_SUMMARY: NCI tumour cell line growth inhibition, 48 h
Dear colleague, please return just the value in µM, with no unit written.

Some compounds with known TGI results, for comparison:
COMPOUND	UNIT_OF_MEASUREMENT	TGI
CCCCCC(=O)N[C@@H](c1ccccc1)C(O)C(=O)OC1C[C@@]2(O)C(OC(=O)c3ccccc3)C3[C@](C)(C(=O)[C@H](O)C(=C1C)C2(C)C)C(OC1OCC(O)C(O)C1O)C[C@H]1OC[C@@]31OC(C)=O (stereo not given in full)	µM	10.5
CCCCCCCCCCCCCCCCSCC(COC)COP(=O)([O-])OCC[N+](C)(C)C (stereo not given)	µM	3.56

Input: Provide the documented TGI with HCC-2998 colon as the system for `N#Cc1cnc2cc(OC[C@@H](O)CO)c(NC(=O)CC3CSSC3)cc2c1Nc1ccc(OCc2cccc(F)c2)c(Cl)c1`
Output: 0.506

Cited source for all entries: PubChem BioAssay (NCI)
